Biological target: T1, PUF4 RNA-binding domain (Saccharomyces cerevisiae, UniProt P25339 537-888)
T1 sequence: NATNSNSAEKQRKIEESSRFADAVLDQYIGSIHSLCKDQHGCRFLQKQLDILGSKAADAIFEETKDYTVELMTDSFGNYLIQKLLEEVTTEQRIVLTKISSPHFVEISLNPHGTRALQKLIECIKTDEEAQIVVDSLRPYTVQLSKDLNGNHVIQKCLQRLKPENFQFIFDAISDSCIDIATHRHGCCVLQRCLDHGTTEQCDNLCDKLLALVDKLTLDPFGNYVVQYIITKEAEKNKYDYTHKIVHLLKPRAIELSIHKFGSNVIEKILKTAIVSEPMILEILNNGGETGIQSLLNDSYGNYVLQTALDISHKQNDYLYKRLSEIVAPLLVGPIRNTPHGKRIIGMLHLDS
Assay: Mg; RNA-MaP; 20 mM Na-HEPES pH 7.4, 30 mM KOAc, 0.75 mM MgCl2, 0.1% Tween-20, 5% glycerol, 0.1 mg/mL BSA, 2 mM DTT; 25 C; 0.0125-409.6 nM protein
Details: tags: N-His6-TEV cleaved; C-SNAP kept, Cy3B-labelled; label: tethered on chip by stalled RNA polymerase
pKd: −log10 of the molar value.
Endpoint Label: pKd

Some solved cases for reference:
INSERT INTO measurements (binder, result) VALUES
  ('UCUCUUCUACACUAUUAUUUCUCUU (ssRNA) [Id_ii_S1_P4E.4_K4.3_C4.2_H4.3_A4.1_F4.1_T4.2_[G10T]]', '< 5.64'),
  ('Id_ii_S2_P5E.2_K5.1_C5.2_[C-2T]_[T-1G]_H5.1_A5.1_F5.1_T5.2_[A12T] (ssRNA) RNA: UUUGAUUAAUAUGAUAUCGUUCUUUCUUGUGUAUUAUUAUUUUCUUUCUCGAUAUCAUAUUAAUCUUU', 8.85);

Please turn your attention to the following entry.
Enquiry: Which pKd reading was recorded for the binder Id_ii_S4_P4E.4_K4.3_C4.2_[T-1A]_H4.3_A4.1_F4.1_T4.2_[T11C] (ssRNA) RNA: UUUGACAACUGAUCGUUCUUUCUCAACACUAUUAGCUUCUUUCUCGAUCAGUUGUCUUU ?
Return: < 5.64

These entries and their values trace back to paper PMC9352680.
